# tgt: T1, recombinant hMCAM-His (human, UniProt P43121 24-559)
# T1 construct: not shown: His tag
# T1 chain: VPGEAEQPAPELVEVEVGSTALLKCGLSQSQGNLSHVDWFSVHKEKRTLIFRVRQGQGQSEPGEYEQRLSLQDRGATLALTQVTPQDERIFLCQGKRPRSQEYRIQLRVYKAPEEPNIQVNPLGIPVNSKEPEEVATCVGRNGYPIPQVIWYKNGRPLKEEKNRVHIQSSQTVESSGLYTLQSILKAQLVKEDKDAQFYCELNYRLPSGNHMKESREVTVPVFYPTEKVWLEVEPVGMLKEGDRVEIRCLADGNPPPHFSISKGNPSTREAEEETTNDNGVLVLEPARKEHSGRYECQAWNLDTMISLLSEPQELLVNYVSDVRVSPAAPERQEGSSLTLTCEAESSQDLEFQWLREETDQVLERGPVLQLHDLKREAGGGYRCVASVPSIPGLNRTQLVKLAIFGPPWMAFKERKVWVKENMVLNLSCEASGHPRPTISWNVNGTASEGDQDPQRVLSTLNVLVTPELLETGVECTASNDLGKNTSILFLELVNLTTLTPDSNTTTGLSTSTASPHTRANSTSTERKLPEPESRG
# assayExplanation: ForteBio Octet Red, hMCAM-His analyte; Expt. #1; vs rodent 2107
experimentalEndpoint: fold over rodent (Forte affinity) (fold)
I only need the number, in fold, no unit after it.

[ask] Name the recorded fold over rodent (Forte affinity) of the binder listed here: h2107_VH4 + h2107_VL2 (antibody, human IgG1, V domains shown) VH: QVTLKESGPVLVKPTETLTLTCTVSGFSLTSSGVSWVRQPPGKALEWIAAISSGGSTYYNSAFKSRLTISPDTSKSQVVLTMTNMDPVDTATYYCARHRPFYFDYWGQGTLVTVSS VL: DIQMTQSPSSLSASVGDRVTITCKGSQNIYKSLAWFQLKPGKVPKLLIYDANSLQTGIPSRFSGSGSGTDFTLTISSLQPEDVATYYCQQYYSGYTFGGGTKVEIK
[reply] 5.59

[ask] Tell me fold over rodent (Forte affinity) reported for rat anti-human MCAM monoclonal antibody clone 2107.4.10 (antibody, V domains shown, rat hybridoma antibody; elsewhere '83 or 84'); also called rodent 2107; murine 2107.4.10.18 anti-MCAM antibody) VH: QVQLKESGPGLVQSSQTLSLTCTVSGFSLTSNGVSWVRQPPGKGLEWIAAISSGGSTYYNSAFKSRLSISRNTSKSQVLLKMNSLQTEDTGMYFCARHRPFYFDYWGQGVMVTVSS VL: DIQVTQSPSLLSASVGDRVTLNCKGSQNIYKSLAWFRLKRGEAPKLLIYDANSLQTGIPSRFSGSGSGTDFTLTITSLQPEDVATYFCQQYYSGYTFGAGTKLELK
[reply] 1

[ask] For the binder h2107_VH1 + h2107_VL2 (antibody, human IgG1, V domains shown, also called VH1VL2) VH: QVTLKESGPVLVKPTETLTLTCTVSGFSLTSNGVSWVRQPPGKALEWIAAISSGGSTYYNSAFKSRLTISRDTSKSQVVLTMTNMDPVDTATYYCARHRPFYFDYWGQGTLVTVSS VL: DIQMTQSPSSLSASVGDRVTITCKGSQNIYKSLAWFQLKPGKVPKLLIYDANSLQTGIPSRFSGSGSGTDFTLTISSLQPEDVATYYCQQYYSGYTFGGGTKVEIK , give its reported fold over rodent (Forte affinity).
[reply] 2.37

[ask] Give a short answer stating reported fold over rodent (Forte affinity) for h2107_VH2 + h2107_VL2 (antibody, human IgG1, V domains shown, also called h2107VH2VL2; VH2VL2) VH: QVTLKESGPVLVKPTETLTLTCTVSGFSLTSNGVSWVRQPPGKALEWIAAISSGGSTYYNSAFKSRLSISRDTSKSQVVLTMTNMDPVDTATYYCARHRPFYFDYWGQGTLVTVSS VL: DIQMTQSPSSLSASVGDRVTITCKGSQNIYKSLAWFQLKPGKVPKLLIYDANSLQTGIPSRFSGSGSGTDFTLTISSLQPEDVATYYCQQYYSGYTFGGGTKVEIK .
[reply] 2.54

[ask] Answer with reported fold over rodent (Forte affinity) of h2107_VH3 + h2107_VL2 (antibody, human IgG1, V domains shown, also called VH3VL2) VH: QVTLKESGPVLVKPTETLTLTCTVSGFSLTSNGVSWVRQPPGKALEWIAAISSGGSTYYNSAFKSRLTISRNTSKSQVVLTMTNMDPVDTATYYCARHRPFYFDYWGQGTLVTVSS VL: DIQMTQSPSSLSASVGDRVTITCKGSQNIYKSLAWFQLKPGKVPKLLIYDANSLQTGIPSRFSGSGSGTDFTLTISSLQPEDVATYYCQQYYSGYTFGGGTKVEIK
[reply] 2.54
